Each entry below lists one item and its recorded pIC50 value.
# Test system: PI3Kβ (Homo sapiens)
# Sequence (P42338 whole entry): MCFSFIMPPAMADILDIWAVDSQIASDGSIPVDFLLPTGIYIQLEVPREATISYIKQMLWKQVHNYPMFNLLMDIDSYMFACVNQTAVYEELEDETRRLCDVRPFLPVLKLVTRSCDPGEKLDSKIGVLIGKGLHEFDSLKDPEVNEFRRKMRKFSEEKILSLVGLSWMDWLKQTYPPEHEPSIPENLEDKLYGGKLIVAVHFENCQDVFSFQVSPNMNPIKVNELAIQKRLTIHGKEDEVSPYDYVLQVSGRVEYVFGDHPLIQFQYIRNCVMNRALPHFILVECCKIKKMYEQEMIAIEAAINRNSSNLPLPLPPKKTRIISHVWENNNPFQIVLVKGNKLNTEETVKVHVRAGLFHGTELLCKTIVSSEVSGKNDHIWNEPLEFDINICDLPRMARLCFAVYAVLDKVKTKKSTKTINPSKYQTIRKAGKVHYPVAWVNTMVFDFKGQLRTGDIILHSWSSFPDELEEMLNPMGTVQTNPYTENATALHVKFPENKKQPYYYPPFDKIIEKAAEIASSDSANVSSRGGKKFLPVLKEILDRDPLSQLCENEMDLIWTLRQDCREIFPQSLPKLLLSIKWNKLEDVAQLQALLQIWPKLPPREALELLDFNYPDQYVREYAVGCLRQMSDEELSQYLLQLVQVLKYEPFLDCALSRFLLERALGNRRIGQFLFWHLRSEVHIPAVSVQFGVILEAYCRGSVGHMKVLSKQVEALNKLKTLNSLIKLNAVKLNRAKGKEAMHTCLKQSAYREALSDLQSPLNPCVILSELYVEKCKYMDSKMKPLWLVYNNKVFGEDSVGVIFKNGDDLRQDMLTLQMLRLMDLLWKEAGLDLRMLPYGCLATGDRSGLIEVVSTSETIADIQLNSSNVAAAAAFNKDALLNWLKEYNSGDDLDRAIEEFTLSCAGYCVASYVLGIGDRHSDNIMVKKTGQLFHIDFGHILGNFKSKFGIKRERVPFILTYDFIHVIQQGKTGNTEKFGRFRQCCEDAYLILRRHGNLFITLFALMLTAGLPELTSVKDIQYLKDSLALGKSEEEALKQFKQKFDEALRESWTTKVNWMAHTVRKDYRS
# Sequence (P27986 whole entry partner): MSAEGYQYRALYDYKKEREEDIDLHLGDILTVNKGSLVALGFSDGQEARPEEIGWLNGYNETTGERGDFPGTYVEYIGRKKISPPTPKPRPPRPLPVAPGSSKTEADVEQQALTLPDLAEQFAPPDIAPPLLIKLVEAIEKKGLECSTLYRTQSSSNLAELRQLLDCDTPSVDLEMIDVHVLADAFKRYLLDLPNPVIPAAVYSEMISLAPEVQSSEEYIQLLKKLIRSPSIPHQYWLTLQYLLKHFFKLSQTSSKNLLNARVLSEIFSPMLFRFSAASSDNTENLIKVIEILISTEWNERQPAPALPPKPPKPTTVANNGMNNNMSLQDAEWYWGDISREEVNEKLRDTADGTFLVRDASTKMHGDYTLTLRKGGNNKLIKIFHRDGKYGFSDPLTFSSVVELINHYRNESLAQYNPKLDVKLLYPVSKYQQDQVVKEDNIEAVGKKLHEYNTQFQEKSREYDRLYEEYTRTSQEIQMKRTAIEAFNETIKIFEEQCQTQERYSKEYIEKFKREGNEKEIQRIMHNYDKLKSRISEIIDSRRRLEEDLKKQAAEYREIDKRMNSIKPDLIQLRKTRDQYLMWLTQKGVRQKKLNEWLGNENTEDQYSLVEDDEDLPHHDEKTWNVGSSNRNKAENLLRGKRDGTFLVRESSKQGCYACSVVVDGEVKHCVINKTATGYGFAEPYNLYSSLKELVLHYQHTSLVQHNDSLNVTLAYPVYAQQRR
# Protocol notes: In vitro determination of the PI3K enzyme inhibitory activity in the cell free assay (ADP-Glo Kinase Assay), PI3Kβ
# Condition label: ATP 100 μM, read-out: PI3K beta inhibition
pIC50: −log10 of the molar value.

Example results:
{"Compound": "C[C@H](c1cc2ccccn2c1-c1ccc(CN2CCN(C)CC2)cn1)n1nc(-c2cc(O)cc(F)c2)c2c(N)ncnc21 (single isomer, unassigned) [Example 114b]", "Experimental value": "6.00 to 8.00"}
{"Compound": "CCCC#Cc1c(C(C)Nc2ncnc(N)c2C#N)cc2ccccn12 (stereo not shown)", "Experimental value": "6.00 to 8.00"}
{"Compound": "c1ccc(-c2c(CNc3ncnc4[nH]cnc34)cc3ccccn23)cc1", "Experimental value": "< 6.00"}
{"Compound": "CC(c1cc2ccccn2c1-c1ccc(OCCC2CCN(C)CC2)nn1)n1nc(-c2cc(O)cc(F)c2)c2c(N)ncnc21 (stereo not shown)", "Experimental value": "6.00 to 8.00"}
{"Compound": "CC(c1cc2ccccn2c1-c1ccccn1)n1nc(-c2cc(F)cc(NS(C)(=O)=O)c2)c2c(N)ncnc21 (stereo not shown)", "Experimental value": "< 6.00"}
{"Compound": "CC(c1cc2ccccn2c1-c1ccccc1C#N)n1nc(-c2cc(O)cc(F)c2)c2c(N)ncnc21 (stereo not shown)", "Experimental value": "6.00 to 8.00"}
{"Compound": "Nc1ncnc2c1ncn2Cc1cc2ccccn2c1-c1cccc(F)c1", "Experimental value": "< 6.00"}
{"Compound": "CC(c1cc2ccccn2c1-c1ccn(CCN2CCOCC2)c(=O)c1)n1nc(-c2cc(O)cc(F)c2)c2c(N)ncnc21 (stereo not shown)", "Experimental value": "6.00 to 8.00"}
{"Compound": "C[C@@H](c1cc2ccccn2c1-c1ccccn1)n1nc(-c2cc(O)cc(F)c2)c2c(N)ncnc21 (single isomer, unassigned) [Example 81]", "Experimental value": "< 6.00"}
{"Compound": "CC(c1cc2ccccn2c1CN1CC2(CCN(C)CC2)C1)n1nc(-c2cc(O)cc(F)c2)c2c(N)ncnc21 (stereo not shown)", "Experimental value": "6.00 to 8.00"}

// pIC50 (PI3Kβ (Homo sapiens)) for Nc1nccnc1C(=O)NCc1cn2ccccc2c1-c1ccccn1 = < 6.00

// pIC50 (PI3Kβ (Homo sapiens)) for CC(c1cc2ccccn2c1C#CCN(C)C)n1nc(-c2cc(O)cc(F)c2)c2c(N)ncnc21 (stereo not shown) = 6.00 to 8.00

// pIC50 (PI3Kβ (Homo sapiens)) for CC(c1cc2ccccn2c1C1=CCNCC1)n1nc(-c2cc(O)cc(F)c2)c2c(N)ncnc21 (stereo not shown) = 6.00 to 8.00

----------
Each entry below lists one item and its recorded IC50 value.
# Test system: PI3Kα (Homo sapiens, UniProt P42336)
# Sequence (P42336 whole entry): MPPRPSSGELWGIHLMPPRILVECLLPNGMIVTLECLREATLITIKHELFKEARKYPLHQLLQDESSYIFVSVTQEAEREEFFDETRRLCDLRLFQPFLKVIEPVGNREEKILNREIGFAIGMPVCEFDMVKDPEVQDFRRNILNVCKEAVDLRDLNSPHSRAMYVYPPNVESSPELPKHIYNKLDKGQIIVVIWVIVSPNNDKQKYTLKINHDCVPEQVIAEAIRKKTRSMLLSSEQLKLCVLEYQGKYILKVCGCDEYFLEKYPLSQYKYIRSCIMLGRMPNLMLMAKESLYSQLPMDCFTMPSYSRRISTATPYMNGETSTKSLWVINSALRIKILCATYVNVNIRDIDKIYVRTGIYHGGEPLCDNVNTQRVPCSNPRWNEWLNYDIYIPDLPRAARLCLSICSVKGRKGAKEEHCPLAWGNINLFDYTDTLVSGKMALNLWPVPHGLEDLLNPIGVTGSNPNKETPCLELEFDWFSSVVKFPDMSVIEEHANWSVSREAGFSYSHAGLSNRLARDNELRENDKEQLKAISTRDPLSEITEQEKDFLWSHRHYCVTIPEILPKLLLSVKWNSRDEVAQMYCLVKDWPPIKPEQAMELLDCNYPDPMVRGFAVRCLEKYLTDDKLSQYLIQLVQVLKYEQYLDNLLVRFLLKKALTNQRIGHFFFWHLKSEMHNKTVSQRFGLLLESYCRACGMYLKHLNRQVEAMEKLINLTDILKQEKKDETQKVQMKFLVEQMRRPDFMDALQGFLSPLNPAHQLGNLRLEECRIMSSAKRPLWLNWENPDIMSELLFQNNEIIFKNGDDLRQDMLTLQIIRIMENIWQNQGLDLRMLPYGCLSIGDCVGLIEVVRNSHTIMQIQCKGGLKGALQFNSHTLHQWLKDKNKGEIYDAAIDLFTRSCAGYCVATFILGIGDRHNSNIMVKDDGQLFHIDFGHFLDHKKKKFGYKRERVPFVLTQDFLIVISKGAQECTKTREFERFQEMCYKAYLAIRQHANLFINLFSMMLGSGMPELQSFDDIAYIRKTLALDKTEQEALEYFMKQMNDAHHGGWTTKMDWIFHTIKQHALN
# Sequence (P27986 whole entry partner): as the sequence (P27986 whole entry partner) above
# Protocol notes: In vitro determination of the PI3K enzyme inhibitory activity in the cell free assay (ADP-Glo Kinase Assay), PI3Kα
# Condition label: ATP 50 μM, read-out: PI3K alpha inhibition

{"Compound": "CC(=O)Nc1cccc(-c2nn(C(C)c3cc4ccccn4c3-c3ccccn3)c3ncnc(N)c23)c1 (stereo not shown)", "IC50": "> 1 µM"}
{"Compound": "C[C@H](c1cc2ccccn2c1-c1ccc(CN(CCO)CCO)cn1)n1nc(-c2cc(O)cc(F)c2)c2c(N)ncnc21 (single isomer, unassigned) [Example 117a]", "IC50": "0.01 to 1 µM"}

Per the records, this compound ( Cc1ccccc1-c1c(Cn2cnc(N)c3ncnc2-3)cc2ccccn12 ) has IC50 equal to > 1 µM

Per the records, this compound ( CC(c1cc2ccccn2c1-c1ccn(CCN(C)C)c(=O)c1)n1nc(-c2cc(O)cc(F)c2)c2c(N)ncnc21 (single isomer, unassigned) [Example 133b] ) has IC50 equal to 0.01 to 1 µM

----------
Each entry below lists one item and its recorded IC50 value.
# Test system: PI3Kδ (Homo sapiens, UniProt O00329)
# Sequence (O00329 whole entry): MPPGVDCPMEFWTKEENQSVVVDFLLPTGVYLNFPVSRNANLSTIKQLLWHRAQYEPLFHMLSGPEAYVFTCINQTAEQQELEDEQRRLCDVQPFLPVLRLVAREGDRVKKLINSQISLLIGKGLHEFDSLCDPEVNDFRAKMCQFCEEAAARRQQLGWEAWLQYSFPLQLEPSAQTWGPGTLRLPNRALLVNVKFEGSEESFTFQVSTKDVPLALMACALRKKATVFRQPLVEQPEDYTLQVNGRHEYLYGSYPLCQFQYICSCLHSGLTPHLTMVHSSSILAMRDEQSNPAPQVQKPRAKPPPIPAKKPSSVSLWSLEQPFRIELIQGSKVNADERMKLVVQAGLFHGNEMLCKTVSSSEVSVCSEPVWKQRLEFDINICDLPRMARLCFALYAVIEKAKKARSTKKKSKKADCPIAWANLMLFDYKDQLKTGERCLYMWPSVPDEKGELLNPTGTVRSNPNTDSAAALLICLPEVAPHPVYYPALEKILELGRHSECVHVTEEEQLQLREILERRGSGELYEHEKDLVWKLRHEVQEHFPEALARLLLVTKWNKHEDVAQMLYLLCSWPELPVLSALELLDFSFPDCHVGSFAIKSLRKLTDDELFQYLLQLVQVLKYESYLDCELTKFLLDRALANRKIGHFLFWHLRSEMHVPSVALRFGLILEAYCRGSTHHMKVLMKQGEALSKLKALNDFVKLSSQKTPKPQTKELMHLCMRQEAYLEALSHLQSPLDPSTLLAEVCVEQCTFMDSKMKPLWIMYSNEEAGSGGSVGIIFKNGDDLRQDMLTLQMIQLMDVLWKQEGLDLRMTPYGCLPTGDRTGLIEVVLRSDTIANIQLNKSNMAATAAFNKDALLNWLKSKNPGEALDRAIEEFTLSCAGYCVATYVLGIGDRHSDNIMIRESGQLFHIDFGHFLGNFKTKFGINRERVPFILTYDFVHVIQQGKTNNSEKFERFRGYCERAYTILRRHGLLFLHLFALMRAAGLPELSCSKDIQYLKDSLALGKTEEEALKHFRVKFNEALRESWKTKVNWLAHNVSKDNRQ
# Sequence (P27986 whole entry partner): as the sequence (P27986 whole entry partner) above
# Protocol notes: In vitro determination of the PI3K enzyme inhibitory activity in the cell free assay (ADP-Glo Kinase Assay), PI3Kδ
# Condition label: ATP 80 μM, read-out: PI3K delta inhibition

Example results:
{"Compound": "CC(c1cc2ccccn2c1-c1ccc(CN(CCO)CCO)cn1)n1nc(-c2cc(O)cc(F)c2)c2c(N)ncnc21 (stereo not shown)", "Test system": "PI3Kδ (Homo sapiens, UniProt O00329)", "Quantity kind": "IC50", "Experimental value": "< 0.01 µM"}
{"Compound": "CC(c1cc2ccccn2c1-c1ccc(OCCC2CCN(C)CC2)nn1)n1nc(-c2cc(O)cc(F)c2)c2c(N)ncnc21 (stereo not shown)", "Test system": "PI3Kδ (Homo sapiens, UniProt O00329)", "Quantity kind": "IC50", "Experimental value": "0.01 to 1 µM"}

Per the records, this compound ( C[C@H](c1cc2ccccn2c1-c1ccc(CN(CCO)CCO)cn1)n1nc(-c2cc(O)cc(F)c2)c2c(N)ncnc21 (single isomer, unassigned) [Example 117b] ) has IC50 equal to < 0.01 µM

Per the records, this compound ( CC(c1cc2ccccn2c1-c1ccccn1)n1nc(-c2cc(N)cc(F)c2)c2c(N)ncnc21 (stereo not shown) ) has IC50 equal to 0.01 to 1 µM

----------
# Test system: PI3Kα (Homo sapiens)
# Protocol notes: In vitro determination of the PI3K enzyme inhibitory activity in the cell free assay (ADP-Glo Kinase Assay), PI3Kα
# Condition label: ATP 50 μM, read-out: PI3K alpha inhibition
pIC50: −log10 of the molar value.
Quantity kind: pIC50

Example results:
{"Compound": "c1ccn2cc(CNc3ncnc4[nH]cnc34)cc2c1", "pIC50": "< 6.00"}
{"Compound": "CC(Nc1ncnc(N)c1C#N)c1cc2ccccn2c1-c1ccccn1 (stereo not shown)", "pIC50": "< 6.00"}
{"Compound": "CC(c1cc2ccccn2c1-c1ccccn1)n1nc(-c2cccc(CO)c2)c2c(N)ncnc21 (stereo not shown)", "pIC50": "< 6.00"}

Alright, here's another compound for you.
// pIC50 (PI3Kα (Homo sapiens)) for C[C@H](c1cc2ccccn2c1-c1ccc(CN(CCO)CCO)cn1)n1nc(-c2cc(O)cc(F)c2)c2c(N)ncnc21 (single isomer, unassigned) [Example 117b] = 6.00 to 8.00

----------
# Test system: PI3Kα (Homo sapiens, UniProt P42336)
# Protocol notes: In vitro determination of the PI3K enzyme inhibitory activity in the cell free assay (ADP-Glo Kinase Assay), PI3Kα
# Condition label: ATP 50 μM, read-out: PI3K alpha inhibition
Structures can show the parent of a compound that is named as a salt.
Each entry below lists one item and its recorded IC50 value.

Example results:
{"Molecule": "N#Cc1c(N)ncnc1NCc1cc2ccccn2c1-c1cccc(F)c1", "IC50": "> 1000 nM"}
{"Molecule": "CC(c1cc2ccccn2c1-c1ccccc1C#N)n1nc(-c2cc(O)cc(F)c2)c2c(N)ncnc21 (stereo not drawn)", "IC50": "> 1000 nM"}
{"Molecule": "CC(Nc1ncnc(N)c1C(=O)O)c1cc2ccccn2c1-c1ccccn1 (stereo not drawn) [Example 53, formate]", "IC50": "> 1000 nM"}
{"Molecule": "CC(c1c(C#N)c2ccccn2c1-c1cccc(CN(C)C)c1)n1nc(-c2cc(O)cc(F)c2)c2c(N)ncnc21 (stereo not drawn)", "IC50": "> 1000 nM"}
{"Molecule": "CC(c1cc2ccccn2c1-c1ccccn1)n1nc(-c2cccnc2)c2c(N)ncnc21 (stereo not drawn)", "IC50": "> 1000 nM"}
{"Molecule": "Cc1cccn2c(-c3ccccn3)c(C(C)Nc3ncnc(N)c3C#N)cc12 (stereo not drawn)", "IC50": "> 1000 nM"}
{"Molecule": "N#Cc1c(N)ncnc1NCc1cc2ccccn2c1-c1ccccc1F", "IC50": "> 1000 nM"}
{"Molecule": "CC(c1cc2ccccn2c1-c1ccccc1F)n1nc(-c2cc(O)cc(F)c2)c2c(N)ncnc21 (stereo not drawn)", "IC50": "> 1000 nM"}

Per the records, this molecule ( CC(Nc1ncnc(N)c1/C=N/O)c1cc2ccccn2c1-c1ccccn1 (stereo not drawn) ) has IC50 equal to > 1000 nM

Per the records, this molecule ( Cc1ccn2c(-c3ccccn3)c(C(C)n3nc(-c4cc(O)cc(F)c4)c4c(N)ncnc43)cc2c1 (stereo not drawn) ) has IC50 equal to > 1000 nM

Per the records, this molecule ( CC(c1cc2ccccn2c1-c1cccc(CN2CCOCC2)n1)n1nc(-c2cc(O)cc(F)c2)c2c(N)ncnc21 (stereo not drawn) ) has IC50 equal to > 1000 nM

Per the records, this molecule ( CC(c1cc2ccccn2c1-c1ccc(CN(C)C)cc1)n1nc(-c2cc(O)cc(F)c2)c2c(N)ncnc21 (stereo not drawn) ) has IC50 equal to > 1000 nM

Per the records, this molecule ( CC(c1cc2ccccn2c1-c1ccccn1)n1nc(-c2cc(F)cc(NS(C)(=O)=O)c2)c2c(N)ncnc21 (stereo not drawn) ) has IC50 equal to > 1000 nM

Per the records, this molecule ( C[C@H](c1cc2ccccn2c1-c1cccc(CN(C)C)c1)n1nc(-c2cc(O)cc(F)c2)c2c(N)ncnc21 (single isomer, unassigned) [Example 93a] ) has IC50 equal to 10 to 1000 nM

Per the records, this molecule ( C[C@H](c1c(C#N)c2ccccn2c1-c1cccc(CN(C)C)c1)n1nc(-c2cc(O)cc(F)c2)c2c(N)ncnc21 (single isomer, unassigned) [Example 127b] ) has IC50 equal to > 1000 nM
